Experiment: physchem
Conditions: Britton-Robinson universal buffer, pH 7, aqueous buffer, kinetic from dmso stock
PARAMETER: solubility

Guide cases for solubility, answers given:
TEST_SMILES	solubility
CC(C)(C)OC(=O)N1CCC(COc2ccc(-c3ccc4c(c3)OCS4(=O)=O)cc2F)CC1	< 3 µM
O=S1(=O)COc2cc(-c3ccc(OCC4CCN(CC(F)(F)F)CC4)c(F)c3)ccc21	< 3 µM
O=S1(=O)COc2cc(-c3ccc(OCC4CCN(c5ncc(Cl)cn5)CC4)c(F)c3)ccc21	4 µM
O=S1(=O)COc2cc(-c3ccc(OCC4CCN(c5ncc(Cl)cn5)CC4)nc3)ccc21	< 3 µM
CC(C)OC(=O)N1CCC(COc2ccc(-c3ccc4c(c3)OCS4(=O)=O)cc2F)CC1	< 3 µM

Now, please, on to the next compound.
Q: Which value of solubility has been reported for CC(C)(C)OC(=O)N1CCC(COc2ccc(-c3ccc4c(c3)OCS4(=O)=O)cn2)CC1 in the records?
Result: < 3 µM

---

# half-life at 0.5 μM listing for each entry below
Test: Biotransformation in vitro, microsomal stability (human)
Assay type: in vitro ADME
Details: liver microsomal fraction, 0.5 μM, NADPH, read-out: t1/2, min

As a guide, the following entries are already answered.
TEST_SMILES	VALUE_REPORTED
CC(C)(C)OC(=O)N1CCC(COc2ccc(-c3ccc4c(c3)OCS4(=O)=O)cn2)CC1	2.5 min
CC(C)(C)OC(=O)N1CCC(COc2ccc(-c3ccc4c(c3)OCS4(=O)=O)cc2F)CC1	4.16 min
O=S1(=O)COc2cc(-c3ccc(OCC4CCN(c5ncc(Cl)cn5)CC4)nc3)ccc21	40.8 min

Now consider a different compound.
Q: Returns the measured half-life at 0.5 μM for the input compound. Input: O=S1(=O)COc2cc(-c3ccc(OCC4CCN(c5ncc(Cl)cn5)CC4)c(F)c3)ccc21
Result: 42.5 min

---

Test: Pharmacokinetics in vivo after single oral or intravenous administration
Parameters: species or system rat
Settings: male, Wistar, rat, plasma, iv, 10 mg/kg, rats, i.v. injection, individual rat, read-out: MRT last
PARAMETER: MRT last (h)
Note: unit h is implicit; provide only the numeric part.

Q: Please give the measured MRT last for this compound: O=S1(=O)COc2cc(-c3ccc(OCC4CCN(c5ncc(Cl)cn5)CC4)c(F)c3)ccc21 [ZB-16]
Result: 10

---

Experiment: Pharmacokinetics in vivo after single oral or intravenous administration
Parameters: species or system rat
Conditions: male, Wistar, rat, plasma, po, 10 mg/kg, rats, oral administration, individual rat
Method: The pharmacokinetics of ZB-16 in a dose of 10 mg/kg after single oral or intravenous administration was studied in 6 male Wistar rats weighing 250–280 g. […] The blood concentrations of the test compounds in animals were evaluated using HPLC-MS/MS. Basic pharmacokinetic parameters were calculated using a non-model method and WinNonlin Professional 6.0 (Pharsight Corporation, Mountain View, CA, USA) based on the experimental concentration-time data obtained on each animal.
PARAMETER: AUC(0-inf) (ng·h/mL)
Form entry: value (ng·h/mL) — number only.

Q: Sample O=S1(=O)COc2cc(-c3ccc(OCC4CCN(c5ncc(Cl)cn5)CC4)c(F)c3)ccc21 [ZB-16] — what was its AUC(0-inf)?
Result: 124

---

Test: Pharmacokinetics in vivo after single oral or intravenous administration
Set-up: species or system rat
Settings: male, Wistar, rat, plasma, 10 mg/kg, rats; read-out: half-life
PARAMETER: half-life

Q: Which value of half-life has been reported for O=S1(=O)COc2cc(-c3ccc(OCC4CCN(c5ncc(Cl)cn5)CC4)c(F)c3)ccc21 in the records?
Result: > 720 min

---

Assay: Pharmacokinetics in vivo after single oral or intravenous administration
Set-up: species or system rat
Conditions: male, Wistar, rat, plasma, po, 10 mg/kg, rats, oral administration, Mean ± SD (n = 3), read-out: Cmax
PARAMETER: Cmax
Kindly report the value followed by its unit.

Q: State the recorded Cmax for this entry: O=S1(=O)COc2cc(-c3ccc(OCC4CCN(c5ncc(Cl)cn5)CC4)c(F)c3)ccc21
Result: 6 ng/mL

---

Assay: Pharmacokinetics in vivo after single oral or intravenous administration
Design: species or system rat
Settings: male, Wistar, rat, plasma, iv, 10 mg/kg, rats, i.v. injection, individual rat, read-out: t1/2 (converted)
PARAMETER: half-life (h)
I only need the number, in h, no unit after it.

Q: Param item = O=S1(=O)COc2cc(-c3ccc(OCC4CCN(c5ncc(Cl)cn5)CC4)c(F)c3)ccc21 [ZB-16] ; retrieve measured half-life.
Result: 21

---

Test: Pharmacokinetics in vivo after single oral or intravenous administration
Set-up: species or system rat
Settings: male, Wistar, rat, plasma, iv, 10 mg/kg, rats, i.v. injection, individual rat, read-out: AUC 0-t
PARAMETER: AUC(0-t) (ng·h/mL)
Respond numerically; units are ng·h/mL and should not be typed.

Q: Could you tell me which AUC(0-t) is on file for O=S1(=O)COc2cc(-c3ccc(OCC4CCN(c5ncc(Cl)cn5)CC4)c(F)c3)ccc21 ?
Result: 226

---

Assay: Pharmacokinetics in vivo after single oral or intravenous administration
Parameters: species or system rat
Conditions: male, Wistar, rat, plasma, iv, 10 mg/kg, rats, i.v. injection, individual rat
PARAMETER: AUC(0-inf) (ng·h/mL)
# output: bare number, implied unit ng·h/mL

Q: Looking for the measured AUC(0-inf) of O=S1(=O)COc2cc(-c3ccc(OCC4CCN(c5ncc(Cl)cn5)CC4)c(F)c3)ccc21 , can you help?
Result: 441

---

Assay: Pharmacokinetics in vivo after single oral or intravenous administration
Parameters: species or system rat
Conditions: male, Wistar, rat, plasma, iv, 10 mg/kg, rats, i.v. injection, Mean ± SD (n = 3), read-out: MRT last
PARAMETER: MRT last (h)
Respond with the bare value in h.

Q: Report MRT last for O=S1(=O)COc2cc(-c3ccc(OCC4CCN(c5ncc(Cl)cn5)CC4)c(F)c3)ccc21 please.
Result: 9

---

Experiment: Biotransformation in vitro, microsomal stability (rat)
Format: in vitro ADME
Conditions: liver microsomal fraction, 0.5 μM, NADPH, read-out: t1/2, min
This listing pairs compounds with measured half-life at 0.5 μM.
Please state the figure in min; there is no need to write the unit.

The cases that follow already have their half-life at 0.5 μM on record.
TEST_SMILES	half-life at 0.5 μM, min
CC(C)(C)OC(=O)N1CCC(COc2ccc(-c3ccc4c(c3)OCS4(=O)=O)cn2)CC1	21.9
O=S1(=O)COc2cc(-c3ccc(OCC4CCN(c5ncc(Cl)cn5)CC4)nc3)ccc21	131
O=S1(=O)COc2cc(-c3ccc(OCC4CCN(c5ncc(Cl)cn5)CC4)c(F)c3)ccc21	64.8

Now look at this one.
Q: Please give the measured half-life at 0.5 μM for this compound: CC(C)(C)OC(=O)N1CCC(COc2ccc(-c3ccc4c(c3)OCS4(=O)=O)cc2F)CC1
Result: 31.1
